target: γ-GTP (Bacillus subtilis); assay: Inhibition of γ-GTP by inhibitors (irreversible / reversible); format: biochemical; set-up: Das Enzym kommt in Mikroorganismen periplasmatisch und extrazellulär vor; endogenous in cells; host or cells: Bacteria cultured in nutrient medium (genera Pseudomonas, Proteus, Arthrobacter, Bacillus); preferred Bac. subtilis IFO 3025; details: in the presence of the substance; kind of inhibition (irreversible or reversible)
Sequence (P54422 36-402): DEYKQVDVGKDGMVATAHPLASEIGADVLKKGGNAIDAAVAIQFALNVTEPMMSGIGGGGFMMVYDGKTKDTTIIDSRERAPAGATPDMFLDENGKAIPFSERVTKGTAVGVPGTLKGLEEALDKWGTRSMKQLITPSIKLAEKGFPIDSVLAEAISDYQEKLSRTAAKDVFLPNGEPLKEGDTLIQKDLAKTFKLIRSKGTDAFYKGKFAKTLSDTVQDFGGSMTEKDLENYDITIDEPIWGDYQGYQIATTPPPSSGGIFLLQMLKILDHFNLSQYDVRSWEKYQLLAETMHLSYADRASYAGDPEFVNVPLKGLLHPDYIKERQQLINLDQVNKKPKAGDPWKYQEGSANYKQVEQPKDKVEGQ
Sequence (P54422 403-587): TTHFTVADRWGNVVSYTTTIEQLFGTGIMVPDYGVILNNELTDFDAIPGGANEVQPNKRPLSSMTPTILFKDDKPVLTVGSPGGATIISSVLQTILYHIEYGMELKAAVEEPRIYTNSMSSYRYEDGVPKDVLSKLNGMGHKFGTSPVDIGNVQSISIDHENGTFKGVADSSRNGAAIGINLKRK
metric.name: Hemmung der γ-GTP

Sample records with Hemmung der γ-GTP:
In [3]: df
Out[3]:
                                   compound                 value
0                    NC(=O)CI [Jodacetamid]  irreversibel gehemmt
1  [N-]=[N+]=CC(=O)OC[C@H](N)C(=O)O [Azaserin]  irreversibel gehemmt
2                             [Cu] [Kupfer]    reversible Hemmung
3  CC(=O)OCC1=C(C(=O)O)N2C(=O)[C@@H](N)[C@H]2SC1 [7-Aminocephalosporansäure]    reversible Hemmung

Please turn your attention to the following entry.
Provide one value: measured Hemmung der γ-GTP of [Hg] [Quecksilber]
reversible Hemmung
